- system tested: Angiotensin II receptor (Oryctolagus cuniculus)
- test details: Antagonistic effect against Angiotensin II receptor in rabbit aortic strip
Square brackets hold non-standard residues; d marks the D form. Peptide text beside a SMILES is read from it. * marks the point of attachment. Gly(cPent) = N[C@H](C(=O)O)C1CCCC1; Chg = N[C@H](C(=O)O)C1CCCCC1; Lac = C[C@H](O)C(=O)O; Glycolyl = O=C(CO)*
readout name: pA2

CNCC(=O)N[C@@H](CCCN=C(N)N)C(=O)N[C@H](C(=O)N[C@@H](Cc1ccc(O)cc1)C(=O)N[C@H](C(=O)N[C@@H](Cc1c[nH]cn1)C(=O)N1CCC[C@H]1C(=O)N[C@@H](C)C(=O)O)C1CCCC1)C(C)C :: 9.42
CC(C)[C@H](NC(=O)[C@H](CCCN=C(N)N)NC(=O)CO)C(=O)N[C@@H](Cc1ccc(O)cc1)C(=O)N[C@H](C(=O)N[C@@H](Cc1c[nH]cn1)C(=O)N1CCC[C@H]1C(=O)O[C@@H](C)C(=O)O)C1CCCCC1 (Glycolyl-RVY[Chg]HP[Lac]-OH) :: 9.53
CC(C)[C@H](NC(=O)[C@H](CCCN=C(N)N)NC(=O)[C@H](C)O)C(=O)N[C@@H](Cc1ccc(O)cc1)C(=O)N[C@H](C(=O)N[C@@H](Cc1c[nH]cn1)C(=O)N1CCC[C@H]1C(=O)O[C@@H](C)C(=O)O)C1CCCC1 (H-[Lac]RVY[Gly(cPent)]HP[Lac]-OH) :: 8.52
CNCC(=O)N[C@@H](CCCN=C(N)N)C(=O)N[C@H](C(=O)N[C@@H](Cc1ccc(O)cc1)C(=O)N[C@H](C(=O)N[C@@H](Cc1c[nH]cn1)C(=O)N1CCC[C@H]1C(=O)N[C@@H](C)C(=O)O)C1CCCCC1)C(C)C :: 11.18
